Data origin, for the record: patent US10570117B2

property: melting point

Use the examples below as a reference point.
# compound, melting point
data = [
    ("COc1cc(OCc2cncc(C(F)(F)F)c2)ccc1-c1cnc(-c2ccc(Cl)nc2)[nH]1 [Example 106]", "191 to 203 °C"),
    ("Fc1ccc(-c2nc(Br)c(-c3ccc(OCc4ncc(C(F)(F)F)cc4F)cc3)[nH]2)cn1 [Example 345]", "155 to 158 °C"),
    ("COc1cc(OCc2ccc(Br)cc2F)ccc1-c1c[nH]c(-c2ccccn2)n1 [Example 91]", "143 to 146 °C"),
    ("COc1cc(OCc2cccnc2C(F)(F)F)ccc1-c1[nH]c(-c2ccc(F)nc2)nc1Br [Example 278]", "176 to 179 °C"),
    ("COc1cc(OCc2ncc(F)cc2F)ccc1-c1[nH]c(-c2ccc(F)nc2)nc1Br [Example 266]", "161 to 164 °C"),
]

Form: compound = COc1cc(O[C@H](C)c2ccc(C(F)(F)F)cc2)ccc1-c1[nH]c(-c2ccc(F)nc2)nc1Cl [Example 290] ; melting point = 137 to 139 °C

get_value(item= COc1cc(OCc2ncc(C(F)(F)F)cc2F)ccc1-c1[nH]c(-c2ccc(F)nc2)nc1F [Example 319] , readout=melting point) returns 156 to 158 °C

get_value(item= COc1cc(OCc2ccc(C(F)(F)F)nc2)ccc1-c1nc(-c2ccc(Cl)cn2)[nH]c1C [Example 27] , readout=melting point) returns 157 to 159 °C
